Listed below: relative cell viability values for each entry.
System: HL-1
assay.protocol: relative cell viability (CellTiter-Glo) vs DMSO control (% of DMSO control); higher = more viable cells
setup.conditions: oxygen condition: hypoxia 48 h (1% O2) + reoxygenation 24 h; 40 nM
Structures can show the parent of a compound that is named as a salt.

Look over these answered cases.
> print(dat)
                                   compound  assay.system  experimental.value
1  CN(C)C(=O)Oc1cccc([N+](C)(C)C)c1 [Neostigmine bromide]          HL-1                 106
2      O=C(O)c1nn(Cc2ccc(Cl)cc2Cl)c2ccccc12          HL-1                 104
3  CC[C@@]1(O)C(=O)OCc2c1cc1n(c2=O)Cc2cc3ccccc3nc2-1          HL-1                 104
4  CCC(COC(=O)c1cc(OC)c(OC)c(OC)c1)(c1ccccc1)N(C)C (stereo not drawn)          HL-1                 104
5  C[C@]12CC[C@H]3[C@@H](CC[C@@]45O[C@@H]4C(O)=C(C#N)C[C@]35C)[C@@H]1CC[C@@H]2O          HL-1                 101
6  O=P1(N(CCCl)CCCl)NCCCO1 (stereo not drawn) [Cyclophosphamide monohydrate]          HL-1                 100

I'd like to know its relative cell viability. The compound in question is O=C1CC[C@@]2(O)[C@H]3Cc4ccc(O)c5c4[C@@]2(CCN3CC2CC2)[C@H]1O5 [Naltrexone HCl]
102

Quick one: relative cell viability of C[C@]12CC[C@H](O)CC1=CC[C@@H]1[C@@H]2CC[C@]2(C)C(=O)CC[C@@H]12 [Dehydroepiandrosterone] ?
102
